The reported numbers originate from paper PMC12410356.

- System: E. multilocularis metacestode vesicles
- TEST: Phosphoglucose isomerase (PGI) release assay (damage-marker release) on metacestode vesicles
- Assay type: cell-based, Echinococcus multilocularis
- ASSAY_CONTEXT: overview screen, 10 μM, singlets, 12 days, relative to 0.1 % Triton X-100, DMSO subtracted
MEASUREMENT_LABEL: PGI d12 (relative PGI release) (%)
Report the value in % with no unit label.

Cc1onc(-c2ccccc2Cl)c1C(=O)N[C@@H]1C(=O)N2[C@@H]1SC(C)(C)[C@@H]2C(=O)O = -24.5158
CC(C)Nc1ncnc2c1cnn2-c1ccc(Cl)cc1 = 28.117

Query block: Which measured PGI d12 (relative PGI release) value corresponds to NC(=O)c1[nH]c2ccc(S(N)(=O)=O)cc2c1-c1ccccc1 ?
Result block: 0.8963

Query block: Need PGI d12 (relative PGI release), item CCCCCCCc1[nH]c2ccccc2c(=O)c1O
Result block: -12.6441

Query block: Given NC(=S)N/N=C/c1ncccc1N , state its recorded PGI d12 (relative PGI release).
Result block: 1.095

Query block: # query: PGI d12 (relative PGI release) of entry CC(C)(C)c1ccc(C(Cn2cccc(C(F)(F)F)c2=O)NC2Cc3ccccc3C2)cc1 (stereo not shown)
Result block: 0.3021

Query block: Could you tell me which PGI d12 (relative PGI release) is on file for CC(=O)O[C@H]1C[C@@]2(C)[C@@H](C[C@@H](O)[C@H]3[C@@]4(C)CC[C@@H](O)[C@@H](C)[C@@H]4CC[C@@]32C)/C1=C(\CCC=C(C)C)C(=O)O ?
Result block: -12.4921

Query block: Reported PGI d12 (relative PGI release), compound CCC(CC)[C@H](NC(C)=O)[C@@H]1[C@H](O)[C@@H](C(=O)O)C[C@H]1NC(=N)N : ____
Result block: -10.4107

Query block: PGI d12 (relative PGI release) for COc1nc2ccc(Br)cc2cc1[C@@H](c1ccccc1)[C@@](O)(CCN(C)C)c1cccc2ccccc12 ?
Result block: -4.755

Query block: Quick one: PGI d12 (relative PGI release) for O=c1cc(Nc2ccc3ccccc3c2)[nH]c(=O)[nH]1 ?
Result block: -12.1764

Query block: Sample CCNC(=O)Nc1cc(-c2ccccc2)c(-c2cncc(C(=O)O)c2)cn1 — what was its PGI d12 (relative PGI release)?
Result block: -24.3929

Query block: Any idea what its PGI d12 (relative PGI release) is? The compound is COc1ccc2nc(-c3ccccc3)cc(O)c2c1
Result block: 49.0323

###

- System: E. multilocularis metacestode vesicles
- TEST: Metacestode vesicle viability assay (ATP, CellTiter-Glo)
- Format: cell-based, Echinococcus multilocularis
- ASSAY_CONTEXT: overview screen, 10 μM, singlets, 12 days, relative to DMSO control
MEASUREMENT_LABEL: Viability d12 (relative viability) (%)
Kindly provide the numeric value in % only, without the unit symbol.

Query block: State the recorded Viability d12 (relative viability) for this entry: CNCC(=O)OCc1cccnc1N(C)C(=O)OC(C)[n+]1cnn(C[C@](O)(c2cc(F)ccc2F)[C@@H](C)c2nc(-c3ccc(C#N)cc3)cs2)c1 (some centres unmarked)
Result block: 42.7505

Query block: Which Viability d12 (relative viability) is reported for this molecule? O=[N+]([O-])c1ccc2c(CCc3c[nH]c4ccccc34)c[nH]c2c1
Result block: 72.058

Query block: Would you kindly share the measured Viability d12 (relative viability) for CC(C)n1cnc2c(NCc3ccccc3)nc(NCc3ccccc3)nc21 ?
Result block: 34.6202

Query block: # lookup: Viability d12 (relative viability) of OC(Cn1cncn1)(Cn1cncn1)c1ccc(F)cc1F
Result block: 76.1493

Query block: Quick one: Viability d12 (relative viability) for COc1ccc2c(c1)cc(CNC(=O)c1cc3ccccc3o1)n2CC(=O)O ?
Result block: 73.1434

Query block: Viability d12 (relative viability) lookup needed for Nc1nc2c(Cc3cccnc3)c[nH]c2c(=O)[nH]1 , thanks.
Result block: 81.2481

Query block: Viability d12 (relative viability) lookup needed for CC1(C)C[C@H]1C(=O)N/C(=C\CCCCSC[C@@H](N)C(=O)O)C(=O)O.[Na+] , thanks.
Result block: 85.3181

Query block: Given O=C(NC(=O)N1CCCc2ccccc21)c1ccc(Cl)cc1Cl , state its recorded Viability d12 (relative viability).
Result block: 60.7859

###

- Test system: E. multilocularis metacestode vesicles
- TEST: Metacestode vesicle viability assay (ATP, CellTiter-Glo)
- Format: cell-based, Echinococcus multilocularis
- ASSAY_CONTEXT: confirmation screen, 10 μM, triplicates, mean, 12 days
MEASUREMENT_LABEL: Viability d12 (relative viability) (%)
Dear colleague, please return just the value in %, with no unit written.

Known Viability d12 (relative viability) results, listed for orientation:
O=c1nc(N2CCN(CC3CCCCC3)CC2)sc2c([N+](=O)[O-])cc(C(F)(F)F)cc12 = 97.20
Fc1ccc(-c2nc(-c3c[nH]c4ccc(Br)cc34)[nH]c2-c2ccc(F)cc2)cc1 = 69.22
Oc1cccc(C(Nc2nccs2)c2ccc3cccnc3c2O)c1 (stereo not drawn) = 142.26
NS(=O)(=O)c1ccc(NC(=O)NC(c2ccccc2)c2ccccc2)cc1 = 80.00
Cc1nc2ccc(Oc3ccccc3)cc2c2c1CCN2CCc1ccccc1 = 116.13
O=C(c1ccc(F)cc1)N1CCN2C(=O)c3ccccc3C12c1ccccc1 (stereo not drawn) = 130.42
N=c1n(CCN2CCCCC2)c2ccccc2n1CC(O)COc1ccc(Cl)cc1Cl (stereo not drawn) = 90.34
O=C(Nc1ccc(-c2ccccc2)cc1)C1=C(O)C(Cc2ccccc2)OC1=O (stereo not drawn) = 49.52

Query block: Given the molecule O=C(/C(=C/c1ccc(Cl)cc1Cl)n1ccnc1)c1ccc(Cl)cc1 , what is its reported Viability d12 (relative viability)?
Result block: 83.69

Query block: Record request: Viability d12 (relative viability) value, item CCC[C@@H]1C[C@@H](C(=O)N[C@@H]([C@H]2O[C@H](SC)[C@H](O)[C@@H](O)[C@H]2O)[C@H](C)Cl)N(C)C1.Cl
Result block: 61.99

Query block: Which Viability d12 (relative viability) reading was recorded for the molecule O=C(Cc1ccccc1F)Nc1nc2ccccc2[nH]1 ?
Result block: 92.12

Query block: Dear colleague, I am looking for the recorded Viability d12 (relative viability) of the following molecule: O=S(=O)(Nc1cccc2cccnc12)c1ccccc1
Result block: 68.64

Query block: Tell me the measured Viability d12 (relative viability) of Cc1ccc(C)c(OCCCCCCN2C[C@H](O)[C@@H](O)[C@H](O)[C@H]2CO)c1 , please.
Result block: 146.24

Query block: Which Viability d12 (relative viability) value belongs to O=C(NNC(=S)Nc1ccc(Cl)cc1)c1ccncc1 ?
Result block: 83.65

Query block: Entry O=C(CCCC(F)(F)F)N1CCC(c2nc(-c3nccs3)no2)CC1 : reported Viability d12 (relative viability) = ?
Result block: 57.90

Query block: Need Viability d12 (relative viability) of CCc1nc(N)nc(N)c1C#CC(C)c1cc(OC)cc(-c2ccncc2)c1 (stereo not drawn) , thanks.
Result block: 84.60

###

- Test system: E. multilocularis metacestode vesicles
- TEST: Phosphoglucose isomerase (PGI) release assay (damage-marker release) on metacestode vesicles
- Type: cell-based, Echinococcus multilocularis
- ASSAY_CONTEXT: overview screen, 10 μM, singlets, 12 days, relative to 0.1 % Triton X-100, DMSO subtracted
MEASUREMENT_LABEL: PGI d12 (relative PGI release) (%)
Express the result in % but write the number alone.

COc1ccc(C(C)(C)C)cc1NC(=O)C(=O)c1ccc(OCCN2CCOCC2)c2ccccc12 [MMV1782209] = 0.2691

Query block: Please look up its PGI d12 (relative PGI release): C[C@H]1[C@@H](c2cccc(C(F)(F)F)c2)OC(=O)N1C(=O)NCc1cncc2ccccc12 [MMV1593533]
Result block: -25.2459

Query block: // query PGI d12 (relative PGI release) value for entry O=C(Nc1cccc(C2=NCCN2)c1)c1ccc(-c2ccc(C(=O)Nc3cccc(C4=NCCN4)c3)cc2)cc1 [MMV1580853]
Result block: 89.997

Query block: Endpoint output: PGI d12 (relative PGI release) of O=C(c1ccc(F)cc1)N1CCN2C(=O)c3ccccc3C12c1ccccc1 (stereo not shown) [MMV1165877] . Value?
Result block: 52.7291

Query block: # get_value(readout='PGI d12 (relative PGI release)', item= CNCC(=O)OCc1cccnc1N(C)C(=O)OC(C)[n+]1cnn(C[C@](O)(c2cc(F)ccc2F)[C@@H](C)c2nc(-c3ccc(C#N)cc3)cs2)c1 (stereo partly shown) [MMV1634494] )
Result block: -24.8266

Query block: Record request: PGI d12 (relative PGI release) value, item CC(C)Oc1ccc(-n2cnc3cc(/C=C\c4ccc(C(C)(C)O)cc4)ccc32)cc1 [MMV1782350]
Result block: 0.3132

Query block: Given the entry O=C(Nc1ccc(F)cc1)c1nn(-c2ccccc2)c(=O)cc1Cl [MMV1578555] , report its measured PGI d12 (relative PGI release).
Result block: 31.7823

Query block: Item under review: CC(C)(C)OC(=O)NCc1ccc(C(=O)N[C@H]2CCOC2=O)cc1 [MMV1581547] . Reported PGI d12 (relative PGI release)?
Result block: 45.6301

Query block: What value of measured PGI d12 (relative PGI release) is listed for O=C(CSc1nnc(Br)n1-c1ccc(C2CC2)c2ccccc12)Nc1ccc(C(=O)O)cc1Cl [MMV1782213] ?
Result block: -0.7445

Query block: Recorded PGI d12 (relative PGI release) of CC(Cc1ccccc1)C(=O)Nc1ccc(Cl)cc1C(=O)O (stereo not shown) [MMV1579781] , please.
Result block: 1.6268
